Assay summary: Rapid brain distribution assay (LC-MS/MS, brain tissue/plasma ratio)
Assay type: in vivo
Particulars: mouse, ip, CD1 mice, intraperitoneal, grouped compounds, brain tissue and plasma taken one hour after administration, read-out: B/P
Measured Kp at 1 h by item
Answer with the value's number alone.

As a guide, the following entries are already answered.
INSERT INTO results (molecule, quantitative_result) VALUES
  ('Nc1ncc(C#Cc2cncc(-n3nc4c(n3)C(c3ccccc3)CC4)c2)cn1 (centres unmarked)', 1.44),
  ('Nc1ncc(C#Cc2cccc(-n3cc4c(n3)C(c3ccccc3)CC4)c2)cn1 (centres unmarked)', 3.62),
  ('Cn1c(-n2cc3c(n2)C(c2ccccc2)CC3)cc(C#Cc2cnc(N)nc2)cc1=O (centres unmarked)', 1.44);

Note: attention shifts to another entry.
[Q] Report Kp at 1 h, nothing else, for this molecule: C(#Cc1cccc(-n2cc3c(n2)C(c2ccccc2)CC3)c1)c1cccnc1 (centres unmarked)
[A] 1.27
